Target: glutathione S-transferase (GST)-fusion human ERK2 protein (Homo sapiens, UniProt P28482)
Construct: purchased Carna Biosciences, Inc; host or cells: E. coli expression system
Sequence (P28482 whole entry, the tested form may be a part): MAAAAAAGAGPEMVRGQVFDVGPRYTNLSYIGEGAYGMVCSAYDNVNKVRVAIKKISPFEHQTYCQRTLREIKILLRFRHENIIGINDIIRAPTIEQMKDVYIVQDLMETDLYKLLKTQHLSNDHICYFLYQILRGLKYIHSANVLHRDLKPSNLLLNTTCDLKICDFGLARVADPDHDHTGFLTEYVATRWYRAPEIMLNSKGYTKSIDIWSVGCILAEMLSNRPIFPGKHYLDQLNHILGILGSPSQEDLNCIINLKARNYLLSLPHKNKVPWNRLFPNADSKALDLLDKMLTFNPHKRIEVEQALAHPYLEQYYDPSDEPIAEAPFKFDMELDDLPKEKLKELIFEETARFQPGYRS
Experiment: ERK2 enzyme assay (LabChip mobility shift)
Type: biochemical
Settings: IC50 class; 2 nM ERK2, 4.25 μM FL-Peptide 8, 43 μM ATP; read-out: ERK2 Inhibitory Activity
pIC50: −log10 of the molar value.
measured endpoint: pIC50

| molecule | measured endpoint | result |
| --- | --- | --- |
| O=C(Nc1ccc2ncc(-c3cn[nH]c3)cc2n1)NC1CCCCCC1 | pIC50 | > 7.00 |
| CN(C)CCNc1cnc2ccc(NC(=O)NC3CCCC3)nc2c1 | pIC50 | 5.00 to 6.00 |
| CN1CCN(c2cnc3ccc(NC(=O)NC4CCCC4)nc3c2)CC1=O | pIC50 | 6.00 to 7.00 |

stdin: Form field: reported pIC50 of CC(C)C(C)NC(=O)Nc1ccc2ncc(-c3cn[nH]c3)cc2n1 (stereo not drawn)
stdout: > 7.00

stdin: Form field: reported pIC50 of `O=C(Nc1ccc2ncc(N3CCN(c4cccnc4)CC3)cc2n1)NC1CCCC1`
stdout: 6.00 to 7.00

stdin: Form field: reported pIC50 of `CCCNC(=O)Nc1ccc2ncc(-c3cn[nH]c3)cc2n1`
stdout: > 7.00

stdin: Form field: reported pIC50 of `CN1CCN(CCn2cc(-c3cnc4ccc(NC(=O)NC5CCCC5)nc4c3)cn2)CC1`
stdout: > 7.00

stdin: Form field: reported pIC50 of `O=C(NCC1CCCCC1)Nc1ccc2ncc(-c3cn[nH]c3)cc2n1`
stdout: > 7.00

stdin: Form field: reported pIC50 of `CN(C)CCCn1cc(-c2cnc3ccc(NC(=O)NC4(C)CCCC4)nc3c2)cn1`
stdout: 6.00 to 7.00
